CLHEP (predicted hepatic clearance) values by entry
# TEST_SUMMARY: Intrinsic clearance by mouse liver microsomes
# Format: in vitro ADME
# CONDITION_SET: estimated from Clint; mouse hepatic blood flow QH 90 mL/min/kg
Enter your answer as a number in mL/min/kg; do not include the unit.

Value lookup for CLHEP (predicted hepatic clearance); key = O=C(NS(=O)(=O)c1ccc(Cl)cc1)c1cccc(Cc2cc(Cl)ccc2OCc2ccc(Cl)cc2F)n1
86.6

###

Sequence of the target: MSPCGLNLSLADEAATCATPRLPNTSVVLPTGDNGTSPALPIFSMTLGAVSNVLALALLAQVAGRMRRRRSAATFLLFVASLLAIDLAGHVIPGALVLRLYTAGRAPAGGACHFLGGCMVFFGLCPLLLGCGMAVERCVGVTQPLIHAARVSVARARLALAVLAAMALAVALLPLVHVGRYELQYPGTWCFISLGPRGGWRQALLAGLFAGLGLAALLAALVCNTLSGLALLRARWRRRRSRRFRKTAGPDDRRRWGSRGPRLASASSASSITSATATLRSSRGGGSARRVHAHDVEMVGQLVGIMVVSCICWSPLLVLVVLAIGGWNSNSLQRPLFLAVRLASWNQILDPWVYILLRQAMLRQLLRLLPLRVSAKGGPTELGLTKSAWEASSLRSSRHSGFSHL
pKd values by entry
Units for pKd: none; it is -log10 of a concentration expressed in mol/L.

O=C(O)c1cccc(Cc2cc(Cl)ccc2OCc2ccc(Cl)cc2F)n1 [Compound 7, reference compound]    7.28

// below: pKd requested for another molecule
Value lookup for pKd; key = O=C(NS(=O)(=O)c1ccc(Cl)cc1)c1cccc(Cc2cc(Cl)ccc2OCc2ccc(Cl)cc2F)n1
7.06

The values you see were collected from paper PMC3534858.
